Provenance of the data: patent US20260132214A1

target: T1, Glypican 3 Protein, Human, Recombinant (His Tag) (Sino Biological, Cat #10088-H08H) (human, UniProt P51654 25-559); test: Octet QKe BLI, IgG on AHC probe, GPC3 (Sino Biological) in solution, 1:1 fit
T1 construct: Bought recombinant protein; also called Hu-GPC3 (10088-H08H); human GPC3; not shown: His tag
T1 sequence (P51654 25-559 limits assumed): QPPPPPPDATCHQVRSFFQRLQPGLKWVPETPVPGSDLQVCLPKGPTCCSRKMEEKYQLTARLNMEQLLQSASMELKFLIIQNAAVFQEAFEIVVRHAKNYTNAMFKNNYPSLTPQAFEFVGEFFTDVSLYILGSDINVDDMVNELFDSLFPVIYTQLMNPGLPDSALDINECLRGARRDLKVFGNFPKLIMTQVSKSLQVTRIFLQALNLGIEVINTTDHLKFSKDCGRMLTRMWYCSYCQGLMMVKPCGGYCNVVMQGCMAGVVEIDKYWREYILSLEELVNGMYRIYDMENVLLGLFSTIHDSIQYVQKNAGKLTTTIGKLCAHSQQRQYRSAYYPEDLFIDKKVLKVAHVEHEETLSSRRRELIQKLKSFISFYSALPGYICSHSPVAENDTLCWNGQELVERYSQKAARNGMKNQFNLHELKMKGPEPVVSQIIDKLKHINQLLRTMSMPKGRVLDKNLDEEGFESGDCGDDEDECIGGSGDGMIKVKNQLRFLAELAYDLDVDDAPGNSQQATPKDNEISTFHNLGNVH
Provide the reported koff of each item.
Use s⁻¹ as the unit, but write only the number.

Prompt line: Field request: koff | item: P17-16E6 IgG (antibody, V domains shown, IgG) VH: EVQLVESGGGLVQPGGSLRLSCAASGFTFRKYAMSWVRQAPGKGLEWVSSLSASGSATYYADSVKGRFTISRDNSKNTLYLQMNSLRAEDTAVYYCAKEADYSMGWMHYYYGMDVWGQGTTVTVSS VL: QSVLTQPPSVSGAPGQRVTISCTGSSSGYDVHWYQQLPGRAPKLLIYGSNNRPSGVPDRFSGSNSGTSASLAITGLQAEDEADYYCQSYDSSLNAIFGGGTKLTVL
Response line: 2.76e-07

Prompt line: Lookup P17-16A1 IgG (antibody, V domains shown, IgG) VH: EVQLVESGGGLVQPGGSLRLSCAASGFTFKRYAMSWVRQAPGKGLEWVSSVSSSGTGTYYADSVKGRFTISRDNSKNTLYLQMNSLRAEDTAVYYCAKEYDYGLGWMHYYYGMDVWGQGTTVTVSS VL: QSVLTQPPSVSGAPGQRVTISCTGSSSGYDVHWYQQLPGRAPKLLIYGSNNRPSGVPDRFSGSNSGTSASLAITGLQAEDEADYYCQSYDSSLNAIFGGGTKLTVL
Response line: 2.51e-07

Prompt line: Continue with P17-11F4 IgG (antibody, V domains shown, IgG) VH: EVQLVESGGGLVQPGGSLRLSCAASGFTFKDYAMSWVRQAPGKGLEWVSALSGSGGATYYADSVKGRFTISRDNSKNTLYLQMNSLRAEDTAVYYCAKEMDFRYGWMHYYYGMDVWGQGTTVTVSS VL: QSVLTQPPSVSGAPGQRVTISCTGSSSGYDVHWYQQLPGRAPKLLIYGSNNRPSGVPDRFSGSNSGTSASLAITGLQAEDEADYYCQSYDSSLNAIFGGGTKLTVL
Response line: 1.83e-07

Prompt line: Can you check P17-16A11 IgG (antibody, V domains shown, IgG) VH: EVQLVESGGGLVQPGGSLRLSCAASGFTFDRYAMSWVRQAPGKGLEWVSSLSASGSGTYYADSVKGRFTISRDNSKNTLYLQMNSLRAEDTAVYYCAKEYDFSYGWMHYYYGMDVWGQGTTVTVSS VL: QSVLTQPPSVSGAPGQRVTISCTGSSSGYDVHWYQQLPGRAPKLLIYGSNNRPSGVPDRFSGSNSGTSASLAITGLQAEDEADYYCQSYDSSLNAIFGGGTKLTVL next?
Response line: 1.87e-07
